Assay system: FPR1 (Homo sapiens)
Construct: expressed in transfected cells
Sequence (P21462 1-350): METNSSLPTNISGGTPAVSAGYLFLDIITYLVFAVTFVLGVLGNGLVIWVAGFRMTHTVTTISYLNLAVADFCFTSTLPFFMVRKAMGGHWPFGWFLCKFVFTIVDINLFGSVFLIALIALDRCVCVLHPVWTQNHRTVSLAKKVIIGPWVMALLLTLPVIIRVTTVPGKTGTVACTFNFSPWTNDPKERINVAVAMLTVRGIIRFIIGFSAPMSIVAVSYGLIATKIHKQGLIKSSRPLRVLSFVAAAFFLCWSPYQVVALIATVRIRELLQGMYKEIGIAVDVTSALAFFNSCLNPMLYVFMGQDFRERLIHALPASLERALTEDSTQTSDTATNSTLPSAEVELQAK
Experiment description: compound-induced calcium activity on FLIPR Tetra, CHO-Gα16 cells stably expressing FPR1
Type: cell-based
Assay conditions: ratio of EC50 for agonizing FPR2 to EC50 for agonizing FPR1 (selectivity for FPR1)
Method: CHO-Gα16 cells stably expressing FPR1 or FPR2 were cultured in (Ham's F12 nutrient media, 10% fetal bovine serum, 1% PSA (penicillin, streptomycin, amphotericin B antiobiotic/antimycotic), 400 μg/ml geneticin and 50 μg/ml hygromycin). In general, the day before the experiment, 18,000 cells/well were plated in a 384-well clear bottom poly-D-lysine coated plate. […] Results are expressed as EC50 (nM) and efficacy values.
Value kind: Ratio FPR2:FPR1 (EC50)
Response field accepts a number only; no unit should be typed.

The compound identified as CC(C)CC(C(=O)O)C(C)NC(=O)Nc1ccc(Br)cc1 (racemic) [Compound 103] registered its Ratio FPR2:FPR1 (EC50) at 79

Sample CC(C)CC(C(=O)O)C(C)NC(=O)Nc1ccc(Br)cc1 (single isomer, unassigned) [Compound 107] ; Ratio FPR2:FPR1 (EC50) observed: 15

The measured Ratio FPR2:FPR1 (EC50) associated with CC(C)CC(C(=O)O)C(C)NC(=O)Nc1ccc(Br)cc1 (racemic) [Compound 102] reads 22

Sure, the documented Ratio FPR2:FPR1 (EC50) for CC(C)CC(C(=O)O)C(C)NC(=O)Nc1ccc(Br)cc1 (single isomer, unassigned) [Compound 104] is 17

Quick note, Ratio FPR2:FPR1 (EC50) for CC(C)CC(C(=O)OC(C)(C)C)C(C)NC(=O)Nc1ccc(Br)cc1 (single isomer, unassigned) [Compound 101] landed at 1

Ratio FPR2:FPR1 (EC50) reading for CC(C)CC(C(=O)O)C(C)NC(=O)Nc1ccc(Br)cc1 (single isomer, unassigned) [Compound 106] : 101

Ratio FPR2:FPR1 (EC50) reading for CC(C)CC(C(=O)OC(C)(C)C)C(C)NC(=O)Nc1ccc(Br)cc1 (single isomer, unassigned) [Compound 100] : 2.6

Given item CC(C)CC(C(=O)O)C(C)NC(=O)Nc1ccc(Br)cc1 (single isomer, unassigned) [Compound 105] , the value recorded as its Ratio FPR2:FPR1 (EC50) is 249

====

Would you mind telling me the reported FPR1 Ga16-CHO (% eff) of each entry?
Assay system: FPR1 (Homo sapiens)
Construct: expressed in transfected cells
Experiment description: compound-induced calcium activity on FLIPR Tetra, CHO-Gα16 cells stably expressing FPR1
Assay type: cell-based
Assay conditions: efficacy value in parentheses; CHO-Gα16 cells stably expressing FPR1; calcium activity
The answer is to be given in %; state only the numeric part.

Record CC(C)CC(C(=O)OC(C)(C)C)C(C)NC(=O)Nc1ccc(Br)cc1 (single isomer, unassigned) [Compound 100] has FPR1 (Homo sapiens) FPR1 Ga16-CHO (% eff) equal to 80

With FPR1 (Homo sapiens) as the test system, CC(C)CC(C(=O)O)C(C)NC(=O)Nc1ccc(Br)cc1 (racemic) [Compound 102] showed FPR1 Ga16-CHO (% eff) of 92

Sample CC(C)CC(C(=O)O)C(C)NC(=O)Nc1ccc(Br)cc1 (single isomer, unassigned) [Compound 104] , system: FPR1 (Homo sapiens). Its FPR1 Ga16-CHO (% eff) is 94

Recorded FPR1 Ga16-CHO (% eff) for CC(C)CC(C(=O)O)C(C)NC(=O)Nc1ccc(Br)cc1 (single isomer, unassigned) [Compound 106] on FPR1 (Homo sapiens) was 91

The molecule CC(C)CC(C(=O)O)C(C)NC(=O)Nc1ccc(Br)cc1 (single isomer, unassigned) [Compound 107] on FPR1 (Homo sapiens): FPR1 Ga16-CHO (% eff) was 93

Tested on FPR1 (Homo sapiens), the item CC(C)CC(C(=O)O)C(C)NC(=O)Nc1ccc(Br)cc1 (single isomer, unassigned) [Compound 105] showed FPR1 Ga16-CHO (% eff) equal to 103

I looked up CC(C)CC(C(=O)OC(C)(C)C)C(C)NC(=O)Nc1ccc(Br)cc1 (single isomer, unassigned) [Compound 101] and its FPR1 Ga16-CHO (% eff) for FPR1 (Homo sapiens) was 66

Result for CC(C)CC(C(=O)O)C(C)NC(=O)Nc1ccc(Br)cc1 (racemic) [Compound 103] , tested on FPR1 (Homo sapiens), FPR1 Ga16-CHO (% eff): 97

====

Assay system: FPR2 (Homo sapiens, UniProt P25090)
Construct: expressed in transfected cells
Sequence (P25090 whole entry): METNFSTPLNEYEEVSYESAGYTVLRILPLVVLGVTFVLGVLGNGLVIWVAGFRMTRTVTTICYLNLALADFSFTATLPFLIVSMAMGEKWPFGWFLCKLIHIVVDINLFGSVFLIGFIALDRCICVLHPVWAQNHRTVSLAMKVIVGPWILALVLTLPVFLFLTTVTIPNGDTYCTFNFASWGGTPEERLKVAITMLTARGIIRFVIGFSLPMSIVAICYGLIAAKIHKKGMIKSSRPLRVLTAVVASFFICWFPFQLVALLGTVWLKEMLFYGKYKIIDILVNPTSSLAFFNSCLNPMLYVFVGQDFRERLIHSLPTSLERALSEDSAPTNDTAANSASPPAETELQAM
Experiment description: compound-induced calcium activity on FLIPR Tetra, CHO-Gα16 cells stably expressing FPR2
Assay type: cell-based
Parameters: unit not given here
Assay conditions: efficacy value in parentheses
Value kind: FPR2 Ga16-CHO (% eff)

The molecule CC(C)CC(C(=O)O)C(C)NC(=O)Nc1ccc(Br)cc1 (single isomer, unassigned) [Compound 107] showed FPR2 Ga16-CHO (% eff) equal to 0.96

Entry CC(C)CC(C(=O)O)C(C)NC(=O)Nc1ccc(Br)cc1 (racemic) [Compound 102] — recorded FPR2 Ga16-CHO (% eff) = 0.63

// recorded FPR2 Ga16-CHO (% eff) for CC(C)CC(C(=O)O)C(C)NC(=O)Nc1ccc(Br)cc1 (single isomer, unassigned) [Compound 106] : 0.75

// FPR2 Ga16-CHO (% eff) lookup, molecule = CC(C)CC(C(=O)OC(C)(C)C)C(C)NC(=O)Nc1ccc(Br)cc1 (single isomer, unassigned) [Compound 100] , result: 0.75

FPR2 Ga16-CHO (% eff) in this record for CC(C)CC(C(=O)O)C(C)NC(=O)Nc1ccc(Br)cc1 (single isomer, unassigned) [Compound 104] : 0.89

So for CC(C)CC(C(=O)O)C(C)NC(=O)Nc1ccc(Br)cc1 (single isomer, unassigned) [Compound 105] , the logged FPR2 Ga16-CHO (% eff) turned out to be 0.56

Value of measured FPR2 Ga16-CHO (% eff) for the entry CC(C)CC(C(=O)OC(C)(C)C)C(C)NC(=O)Nc1ccc(Br)cc1 (single isomer, unassigned) [Compound 101] : 0.73

According to the records, this molecule CC(C)CC(C(=O)O)C(C)NC(=O)Nc1ccc(Br)cc1 (racemic) [Compound 103] displays FPR2 Ga16-CHO (% eff) of 1.04

====

Assay system: FPR2 (Homo sapiens, UniProt P25090)
Experiment description: compound-induced calcium activity on FLIPR Tetra, CHO-Gα16 cells stably expressing FPR2
Assay conditions: tested at 0.61 to 10,000 nM, read-out: FPR2 Ga16-CHO EC50
Description: CHO-Gα16 cells stably expressing FPR1 or FPR2 were cultured in (Ham's F12 nutrient media, 10% fetal bovine serum, 1% PSA (penicillin, streptomycin, amphotericin B antiobiotic/antimycotic), 400 μg/ml geneticin and 50 μg/ml hygromycin). In general, the day before the experiment, 18,000 cells/well were plated in a 384-well clear bottom poly-D-lysine coated plate. […] Results are expressed as EC50 (nM) and efficacy values.
Rule: EC50 below 3000 nM gives rule met. Equal to or above 3000 nM gives rule not met.

Hi there! Is EC50 for CC(C)CC(C(=O)O)C(C)NC(=O)Nc1ccc(Br)cc1 (single isomer, unassigned) [Compound 105] below 3000 nM, do you know?
rule not met

Criterion: EC50 strictly below 3000 nM. Is it met by CC(C)CC(C(=O)O)C(C)NC(=O)Nc1ccc(Br)cc1 (single isomer, unassigned) [Compound 104] ?
rule met

Check if EC50 falls below 3000 nM for CC(C)CC(C(=O)O)C(C)NC(=O)Nc1ccc(Br)cc1 (single isomer, unassigned) [Compound 106] .
rule not met

Could you please tell me whether EC50 recorded for CC(C)CC(C(=O)O)C(C)NC(=O)Nc1ccc(Br)cc1 (single isomer, unassigned) [Compound 102] is less than 3000 nM?
rule met

Does the reported EC50 of CC(C)CC(C(=O)O)C(C)NC(=O)Nc1ccc(Br)cc1 (single isomer, unassigned) [Compound 107] stay below 3000 nM?
rule met

is_below(EC50, 3000 nM) for CC(C)CC(C(=O)OC(C)(C)C)C(C)NC(=O)Nc1ccc(Br)cc1 (single isomer, unassigned) [Compound 101] ?
rule not met

Check if EC50 falls below 3000 nM for CC(C)CC(C(=O)OC(C)(C)C)C(C)NC(=O)Nc1ccc(Br)cc1 (single isomer, unassigned) [Compound 100] .
rule not met

Field: below-cutoff. Rule: recorded EC50 strictly less than 3000 nM. Subject: CC(C)CC(C(=O)O)C(C)NC(=O)Nc1ccc(Br)cc1 (single isomer, unassigned) [Compound 103]
rule met

Origin of the recorded values: patent US11117860B2
